As shown below, each of these molecules has a reported TGI value.
Tested on: SR leukemia
Assay: NCI tumour cell line growth inhibition, 48 h
Give just the number in µM; leave the unit off.

Take a look at these entries with their results.
[
  {
    "molecule": "C#CCCCCCC(=O)N[C@H]1C=C[C@@H]2/C=C(C)/C=C/[C@@H](C)[C@H]([C@H](C)[C@H](O)[C@@H](C)NC(C)=O)OC(=O)/C=C/C=C(C)\\C=C\\[C@]2(C)C1",
    "unit-abbreviation": "µM",
    "TGI": 9.53
  },
  {
    "molecule": "COc1cc(/C=C/c2cc(/C=C/c3ccc(O)c(OC)c3)n(C(=O)Nc3ccc(C)cc3)n2)ccc1O",
    "unit-abbreviation": "µM",
    "TGI": 0.15
  },
  {
    "molecule": "CCOC(=O)C1(C)CCC(C(=O)OC)C1=O (stereo not given)",
    "unit-abbreviation": "µM",
    "TGI": 51
  },
  {
    "molecule": "CCOC(OCC)(OCC)C(Br)CC (stereo not given)",
    "unit-abbreviation": "µM",
    "TGI": 49
  }
]

Consider the record given below.
Q) For CN1CCN(C(=O)/C=C/c2ccc([N+](=O)[O-])o2)CC1 , what is its reported TGI?
A) 75.1

====

System: OVCAR-4 ovarian
Assay: NCI tumour cell line growth inhibition, 48 h; in the data active means GI50 below about 0.43 µM; inactive means the rest
A correct response names exactly one class from active, inactive

Look over these answered cases.
[
  {
    "molecule": "CNCc1cccc2c1OCCOCCOCCNS(=O)(=O)c1ccc(cc1)-c1cnc(N)c(n1)C(=O)N2",
    "system-name": "OVCAR-4 ovarian",
    "category-label": "inactive"
  },
  {
    "molecule": "COc1cc2c(cc1C)NC(=O)/C2=C\\c1ccc(Oc2ccccc2)cc1",
    "system-name": "OVCAR-4 ovarian",
    "category-label": "inactive"
  },
  {
    "molecule": "O=c1c2ccccc2nc2n1CCc1c-2[nH]c2ccccc12",
    "system-name": "OVCAR-4 ovarian",
    "category-label": "inactive"
  }
]

Q) Lab log entry: O=S(=O)(Nc1ccccc1)c1ccc(C2CC3(Cl)C(Cl)=C(Cl)C2(Cl)C3(Cl)Cl)cc1 (stereo not given) — outcome as called in the assay?
A) inactive

Q) Answer briefly: the call reported for COc1ccccc1CNCCCN1C(=O)c2ccc3c4c(ccc(c24)C1=O)C(=O)N(CCCNCc1ccccc1OC)C3=O in this assay.
A) active

====

Tested on: A549 NSCLC
Test: NCI tumour cell line growth inhibition, 48 h
Below: a set of entries, each annotated with reported TGI.

[
  {
    "compound": "COc1ccccc1CNCCCN1C(=O)c2ccc3c4c(ccc(c24)C1=O)C(=O)N(CCCNCc1ccccc1OC)C3=O",
    "data-value": "0.46 µM"
  }
]

Q) So what's the measured TGI for this one? COc1cc(/C=C/c2cc(/C=C/c3ccc(O)c(OC)c3)n(C(=O)Nc3ccc(C)cc3)n2)ccc1O
A) 4.6 µM

Q) For the compound CCC12C=C(C(=O)OC)N3c4ccccc4C4CCN(CCC1)C2C43 (stereo unspecified) , what TGI is on record?
A) > 100 µM

Q) Entry under review: CN(C)c1ccc(/C=c2/sc3nc(=O)c(-c4ccccc4NC(=O)C(F)(F)F)nn3c2=O)cc1 . Reported TGI?
A) > 100 µM

Q) Look at this compound and give its reported TGI. COc1cc(S(=O)(=O)Nc2nc(-c3ccc(N=Cc4ccccc4O)cc3)cs2)ccc1Cl
A) > 100 µM

Q) For the compound O=C(NC1CCCCC1)c1n[nH]nc1Cl , what TGI is on record?
A) > 100 µM

====

Tested on: CCRF-CEM leukemia
Experiment: NCI tumour cell line growth inhibition, 48 h
A collection of molecules and their measured TGI

[
  {
    "molecule": "CC(C)CCCC(C)C1CCC2C3CC([N+](=O)[O-])=C4CC(O)CCC4(C)C3CCC12C (centres undefined)",
    "data-value": "42.9 µM"
  },
  {
    "molecule": "CC(C)(C)c1ccc(OCCOCCOc2ccc(C(C)(C)C)cc2S(N)(=O)=O)c(S(N)(=O)=O)c1",
    "data-value": "> 100 µM"
  },
  {
    "molecule": "CCN(CC)/[N+]([O-])=N/OS(=O)(=O)N(C)C",
    "data-value": "> 100 µM"
  },
  {
    "molecule": "O=c1c2cc(Br)ccc2nc(CNc2ccccc2)n1-c1ccccc1",
    "data-value": "13.7 µM"
  },
  {
    "molecule": "Cc1nc2ccccc2n1Cc1nnc(-c2ccccc2)o1",
    "data-value": "> 100 µM"
  },
  {
    "molecule": "CCOC(=O)C#Cc1c(C(=O)OCC)nnn1[C@@H]1O[C@H](COC)[C@@H](OC)[C@H]1OC",
    "data-value": "4.93 µM"
  },
  {
    "molecule": "CC(=O)Nc1ccc2c(c1)C(=O)c1ccccc1-2",
    "data-value": "> 100 µM"
  },
  {
    "molecule": "Clc1ccc(C(OCn2ccnc2)c2nc3ccccc3[nH]2)c(Cl)c1 (centres undefined)",
    "data-value": "> 100 µM"
  }
]

// below: TGI requested for another molecule
Q) I'd like to know its TGI. The molecule in question is CCN(CC)c1ccc(Cl)c2c1C(O)(C(C)C)C2(C)C (centres undefined)
A) 39.9 µM

====

The reader will find reported TGI values listed item by item below.
Tested on: PC-3 prostate
Assay: NCI tumour cell line growth inhibition, 48 h
Express the result in µM but write the number alone.

[
  {
    "input-smiles": "O=C1[C@H](Cc2ccc(O)cc2)N2C(=O)CCN(C(=O)NCc3ccccc3)[C@H]2CN1Cc1cccc2ccccc12",
    "TGI [µM]": 18.8
  },
  {
    "input-smiles": "COc1ccc(NC(=S)c2ccc([N+](=O)[O-])o2)cc1",
    "TGI [µM]": 2.97
  },
  {
    "input-smiles": "CCOC(=O)C#Cc1c(C(=O)OCC)nnn1[C@@H]1O[C@H](COC)[C@@H](OC)[C@H]1OC",
    "TGI [µM]": 31.7
  }
]

// below: TGI requested for another compound
Q) Param item = Oc1c(Br)cc(Cl)cc1C(c1cc(Cl)cc(Br)c1O)C(Cl)(Cl)Cl ; retrieve measured TGI.
A) 8.21

====

System: SN12C renal
Assay: NCI tumour cell line growth inhibition, 48 h; in the data active means GI50 below about 0.43 µM; inactive means the rest
Write down the outcome that applies. Available outcomes: label 1 for active, label 0 for inactive

Solved cases (3 shown):
[
  {
    "compound": "COc1ccc(-c2c(Nc3ccccn3)nc3c(C4=CCCCC4)c(-c4ccccc4)[nH]n3c2=O)cc1",
    "system-name": "SN12C renal",
    "category-label": "label 0"
  },
  {
    "compound": "O=C(NO)c1ccc(CNc2cccc3nc(C4CC4)n(-c4ccccc4)c(=O)c23)cc1",
    "system-name": "SN12C renal",
    "category-label": "label 0"
  },
  {
    "compound": "CC(=O)O[C@H]([C@H](OC(C)=O)[C@H](C)OC(C)=O)[C@@H](/C=C/[C@H]1CC=CC(=O)O1)OC(C)=O",
    "system-name": "SN12C renal",
    "category-label": "label 0"
  }
]

Q) Which outcome did this test record for the compound N#CC1=C(N)Oc2c(ccc3ccccc23)C1c1cc2ccccc2n2nnnc12 (stereo not drawn) ?
A) label 0

Q) Test call, this compound: O=[N+]([O-])c1ccc2c3c1[C@@H]1O[C@@H]1c1cccc(c1-3)[C@@H]1O[C@H]21
A) label 0

====

Test system: A549 NSCLC
Assay: NCI tumour cell line growth inhibition, 48 h
reported-endpoint: TGI

Consider the following illustrative entries.
[
  {
    "compound": "O=c1c2sc3ccccc3sc=2c(=O)c2c(Cl)c(Cl)c(Cl)c(Cl)c12",
    "reported-endpoint": "TGI",
    "data-value": "> 100 µM"
  },
  {
    "compound": "COC(=O)c1ccc(CCC2=CC(=O)C=CC2=O)cc1",
    "reported-endpoint": "TGI",
    "data-value": "60.5 µM"
  },
  {
    "compound": "COc1ccc([C@@H]2[C@@H](Oc3ccccc3)C(=O)N2c2cc(OC)c(OC)c(OC)c2)cc1F",
    "reported-endpoint": "TGI",
    "data-value": "> 100 µM"
  }
]

Q) // query TGI value for entry COC(=O)C1CC2CC1C1C2SC(F)(F)C1(F)F (stereo not given)
A) > 100 µM

Q) Quick one: TGI for O=C1C[C@@H]2OCC=C3C[N+]4([O-])CC[C@]56c7ccccc7N1[C@H]5[C@H]2[C@H]3C[C@@H]64 (stereo not given in full) ?
A) > 100 µM

The measured values listed here are drawn from PubChem BioAssay (NCI).
